Source: paper PMC7515697

Molecular target: T1, X. albilineans Cas8f–Cas5f heterodimer (Xanthomonas albilineans)
T1 chain 1: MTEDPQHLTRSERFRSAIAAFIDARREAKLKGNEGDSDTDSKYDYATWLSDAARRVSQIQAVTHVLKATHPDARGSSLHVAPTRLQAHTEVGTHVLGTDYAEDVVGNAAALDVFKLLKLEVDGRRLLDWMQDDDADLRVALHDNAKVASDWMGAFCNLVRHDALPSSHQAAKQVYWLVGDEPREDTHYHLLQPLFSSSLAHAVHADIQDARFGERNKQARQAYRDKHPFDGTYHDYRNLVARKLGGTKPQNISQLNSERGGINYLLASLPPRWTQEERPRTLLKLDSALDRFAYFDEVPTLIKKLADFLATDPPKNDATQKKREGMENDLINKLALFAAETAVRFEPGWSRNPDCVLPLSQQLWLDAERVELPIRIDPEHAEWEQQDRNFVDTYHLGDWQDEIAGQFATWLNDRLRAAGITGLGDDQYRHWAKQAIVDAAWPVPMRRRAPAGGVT
T1 chain 2: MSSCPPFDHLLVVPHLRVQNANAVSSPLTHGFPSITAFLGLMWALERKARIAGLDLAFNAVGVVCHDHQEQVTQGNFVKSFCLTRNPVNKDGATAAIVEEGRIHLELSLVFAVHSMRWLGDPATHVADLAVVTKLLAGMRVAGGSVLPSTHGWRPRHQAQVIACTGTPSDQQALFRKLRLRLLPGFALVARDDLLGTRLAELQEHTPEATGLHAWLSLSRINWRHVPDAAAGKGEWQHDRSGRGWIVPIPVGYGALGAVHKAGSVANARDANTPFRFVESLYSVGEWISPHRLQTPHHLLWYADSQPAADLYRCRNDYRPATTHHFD
Test: ITC; 500 mM NaCl
Parameter: pKd
Units for pKd: none; it is -log10 of a concentration expressed in mol/L.

(Q) So what's the measured pKd for this one? AcrIF7 (a.a. 1–67) (natural protein) MTTFTSIVTTNPDFGGFEFYVEAGQQFDDSAYEEAYGVSVPSAVVEEMNAKAAQLKDGEWLNVSHEA
(A) 6.91
